Cited source for all entries: patent US12043617B2

# Test system: SMMC-7721 cells
# PROTOCOL DESCRIPTION: MTT colorimetry, inhibition of hepatocellular carcinoma SMMC-7721 cell activity
# Assay type: cell-based
# EXPERIMENTAL CONDITIONS: 48 hours, 10 μmol/L
READOUT KIND: Inhibition Rate (%)
The answer is to be given in %; state only the numeric part.

// query Please report the recorded Inhibition Rate (%) for `COc1cc(OC)c2c(=O)c(OCCCN(C)C3CCN(C(=S)SCc4ccc(Cl)cc4Cl)CC3)c(-c3cc(OC)c(OC)c(OC)c3)oc2c1` .
// result 97.35

// query Please report the recorded Inhibition Rate (%) for `COc1cc(OC)c2c(=O)c(OCCCCN(C)C3CCN(C(=S)SCc4ccc([N+](=O)[O-])cc4)CC3)c(-c3cc(OC)c(OC)c(OC)c3)oc2c1` .
// result 99.85

// query Please report the recorded Inhibition Rate (%) for `COc1cc(OC)c2c(=O)c(OCCCN(C)C3CCN(C(=S)SCc4ccc([N+](=O)[O-])cc4)CC3)c(-c3cc(OC)c(OC)c(OC)c3)oc2c1` .
// result 99.35

// query Please report the recorded Inhibition Rate (%) for `COc1cc(OC)c2c(=O)c(OCCCN(C)C3CCN(C(=S)SCc4ccc(Cl)nc4)CC3)c(-c3cc(OC)c(OC)c(OC)c3)oc2c1` .
// result 99.76

// query Please report the recorded Inhibition Rate (%) for `COc1cc(OC)c2c(=O)c(OCCCCN(C)C3CCN(C(=S)SCc4ccc(Cl)cc4)CC3)c(-c3cc(OC)c(OC)c(OC)c3)oc2c1` .
// result 97.85

// query Please report the recorded Inhibition Rate (%) for `COc1cc(OC)c2c(=O)c(OCCCN(C)C3CCN(C(=S)SCc4ccc(Cl)cc4)CC3)c(-c3cc(OC)c(OC)c(OC)c3)oc2c1` .
// result 95.51

// query Please report the recorded Inhibition Rate (%) for `COc1cc(OC)c2c(=O)c(OCCCN(C)C3CCN(C(=S)SCc4ccccc4Cl)CC3)c(-c3cc(OC)c(OC)c(OC)c3)oc2c1` .
// result 96.13

// query Please report the recorded Inhibition Rate (%) for `COc1cc(OC)c2c(=O)c(OCCCN(C)C3CCN(C(=S)SCc4cccc(C)c4)CC3)c(-c3cc(OC)c(OC)c(OC)c3)oc2c1` .
// result 97.52

// query Please report the recorded Inhibition Rate (%) for `COc1cc(OC)c2c(=O)c(OCCCCN(C)C3CCN(C(=S)SCc4cccnc4)CC3)c(-c3cc(OC)c(OC)c(OC)c3)oc2c1` .
// result 100

// query Please report the recorded Inhibition Rate (%) for `COc1cc(OC)c2c(=O)c(OCCCN(C)C3CCN(C(=S)SCc4ccccc4C)CC3)c(-c3cc(OC)c(OC)c(OC)c3)oc2c1` .
// result 98.12

// query Please report the recorded Inhibition Rate (%) for `COc1cc(OC)c2c(=O)c(OCCCN(C)C3CCN(C(=S)SCc4ccccc4F)CC3)c(-c3cc(OC)c(OC)c(OC)c3)oc2c1` .
// result 99.85

// query Please report the recorded Inhibition Rate (%) for `COc1cc(OC)c2c(=O)c(OCCCN(C)C3CCN(C(=S)SCc4cccnc4)CC3)c(-c3cc(OC)c(OC)c(OC)c3)oc2c1` .
// result 99.85

// query Please report the recorded Inhibition Rate (%) for `COc1cc(OC)c2c(=O)c(OCCCCN(C)C3CCN(C(=S)SCc4ccccc4Cl)CC3)c(-c3cc(OC)c(OC)c(OC)c3)oc2c1` .
// result 99.85

// query Please report the recorded Inhibition Rate (%) for `COc1cc(OC)c2c(=O)c(OCCCCN(C)C3CCN(C(=S)SCc4cccc(C)c4)CC3)c(-c3cc(OC)c(OC)c(OC)c3)oc2c1` .
// result 100

// query Please report the recorded Inhibition Rate (%) for `COc1cc(OC)c2c(=O)c(OCCCCN(C)C3CCN(C(=S)SCc4ccccc4F)CC3)c(-c3cc(OC)c(OC)c(OC)c3)oc2c1` .
// result 99.76

// query Please report the recorded Inhibition Rate (%) for `COc1cc(OC)c2c(=O)c(OCCCCN(C)C3CCN(C(=S)SCc4ccc(Cl)cc4Cl)CC3)c(-c3cc(OC)c(OC)c(OC)c3)oc2c1` .
// result 99.28

// query Please report the recorded Inhibition Rate (%) for `COc1cc(OC)c2c(=O)c(OCCCCN(C)C3CCN(C(=S)SCc4ccc(Cl)nc4)CC3)c(-c3cc(OC)c(OC)c(OC)c3)oc2c1` .
// result 100

// query Please report the recorded Inhibition Rate (%) for `COc1cc(OC)c2c(=O)c(OCCCCN(C)C3CCN(C(=S)SCc4ccccc4C)CC3)c(-c3cc(OC)c(OC)c(OC)c3)oc2c1` .
// result 99.52
